Test system: German cockroaches (Blattella germanica)
assay_overview: Heating fumigant test in (183 cm)^3 Peet Grady's chamber (Test Example 4)
Type: in vivo, strain low susceptible to pyrethroids
cond: Blattella germanica, 72 h
Give mortality at 10 mg/m3, 10 mg/m3 for every item shown.
Just the number in %, nothing appended.

Q. Kindly indicate its recorded mortality at 10 mg/m3, 10 mg/m3. Item: `ClCCCCOCn1c(Cl)nc(Cl)c1Cl`
A. 80

Q. Indicate its recorded mortality at 10 mg/m3, 10 mg/m3; the molecule in question is `BrCCOCn1c(Br)nc(Br)c1Br`
A. 40

Q. Provide measured mortality at 10 mg/m3, 10 mg/m3 value, entry: `Clc1nc(Cl)n(COCCCCBr)c1Cl`
A. 100

Q. Provide only the value of recorded mortality at 10 mg/m3, 10 mg/m3 for `ClCCOCn1c(Br)nc(Br)c1Br`
A. 3

Reference source: patent US4689340A
